details: buffer; pH 7.4; 200.0 µM
observationType: solubility kinetic (mg/mL)
Response body: numeric value in mg/mL, unit text excluded.

Consider the reported solubility kinetic for these molecules:
[[record]]
molecule = "Cc1nccn1-c1ccc(C=O)cc1"
displayunit = "mg/mL"
testresult = 0.0276

[[record]]
molecule = "COc1cc(SC)ccc1C(=O)Nc1ccccn1"
displayunit = "mg/mL"
testresult = 0.009

[[record]]
molecule = "CN(C)c1nc(-c2cccs2)cc(C(F)(F)F)c1C#N"
displayunit = "mg/mL"
testresult = 0.0003

[[record]]
molecule = "COc1ccc(C2c3sc(=O)[nH]c3SCC2C(N)=O)cc1 (centres undefined)"
displayunit = "mg/mL"
testresult = 0.04


-- ask For the molecule COC(=O)CSc1nc2ccccc2c(=O)n1Cc1ccccc1 , give its measured solubility kinetic value.
-- reply 0.0007

-- ask For the molecule c1ccc(NC2=NCCS2)cc1 , give its measured solubility kinetic value.
-- reply 0.0235

-- ask For the molecule CC1(C)C(C(=O)O)N2C(=O)C(NC(=O)Cc3ccccc3)C2S1=O.O (centres undefined) , give its measured solubility kinetic value.
-- reply 0.0387

-- ask For the molecule COc1ccc(CNC(=O)c2cncc(Br)c2)cc1 , give its measured solubility kinetic value.
-- reply 0.0458

-- ask For the molecule Cc1ccc(NC(=O)/C=C2\NC(=O)CS2)cc1 , give its measured solubility kinetic value.
-- reply 0.0041

###

settings: buffer; pH 7.4; 200.0 µM
Returns one of yes or no; yes when solubility kinetic is >= 10 µg/mL.

-- ask Please check the record CC(Cc1cccs1)NCc1ccccc1 (stereo unspecified) and state if its solubility kinetic is at or above 10 µg/mL.
-- reply yes

-- ask Please check the record O=C(Cn1cc([N+](=O)[O-])ccc1=O)NCc1ccc(Cl)cc1Cl and state if its solubility kinetic is at or above 10 µg/mL.
-- reply no

-- ask Please check the record CC1(C)Cc2c(sc(NC(=O)Cc3ccccc3)c2C#N)CO1 and state if its solubility kinetic is at or above 10 µg/mL.
-- reply no

-- ask Please check the record CC1(NC(=O)Nc2cccc(Br)c2)CCS(=O)(=O)C1 (stereo unspecified) and state if its solubility kinetic is at or above 10 µg/mL.
-- reply yes

-- ask Please check the record CC(=O)Nc1cccc(C(=O)OC(C)C(=O)N2CCc3ccccc32)c1 (stereo unspecified) and state if its solubility kinetic is at or above 10 µg/mL.
-- reply no

-- ask Please check the record CCN(C(=O)COC(=O)c1ccc([N+](=O)[O-])o1)c1cccc2ccccc12 and state if its solubility kinetic is at or above 10 µg/mL.
-- reply yes

###

settings: buffer; pH 7.4; 200.0 µM
Each item that follows carries a reported solubility kinetic.

Consider the reported solubility kinetic for these molecules:
[[record]]
molecule = "CC(=O)Nc1cc2c3c(c1)CCN3C(=O)CC2"
testresult = "> 34.5 µg/mL"

[[record]]
molecule = "COC(=O)C1=C(C)NC(C)=C(C(=O)OC)C1c1ccco1"
testresult = "21.9 µg/mL"

[[record]]
molecule = "CCOC(=O)N1CCC(NC(=O)c2ccc(Cl)cc2)CC1"
testresult = "> 46.6 µg/mL"

[[record]]
molecule = "Cc1cc(NCCCN(C)C)n2c(nc3ccccc32)c1C#N"
testresult = "> 46.1 µg/mL"

[[record]]
molecule = "Cn1c(=O)c2c(nc3n2CCS3)n(C)c1=O"
testresult = "> 35.7 µg/mL"


The record that follows has no solubility kinetic shown yet.
-- ask For the molecule Nc1ccc(S(=O)(=O)NC(Cc2ccccc2)C(=O)O)cc1 (stereo unspecified) , give its measured solubility kinetic value.
-- reply 32.9 µg/mL
